Below: a set of entries, each annotated with reported inhibition at 1 µM.
biological target: cathepsin B (Homo sapiens, UniProt P07858); construct: purchased Calbiochem 219364; assay: Inhibition of cathepsin B; type: biochemical; conditions: Table III; 1 uM; read-out: Cat B % I @ 1 uM
Square brackets hold non-standard residues; d marks the D form. Peptide text beside a SMILES is read from it. * marks the point of attachment. ξ: configuration not given here. ξαMeL = CC(C)CC(C)(N)C(=O)O; Bn = c1ccc(C*)cc1; Ms = CS(=O)(=O)*
readout_type: inhibition at 1 µM (%)

>>> df
                                   molecule  number
0  CC(=O)N[C@H](COCc1ccccc1)C(=O)N[C@H](C=O)Cc1ccccc1      90
1  O=C[C@H](Cc1ccccc1)NC(=O)[C@@H](COCc1ccccc1)NS(=O)(=O)c1ccc2ccccc2c1     100
2  O=C[C@H](Cc1ccccc1)NC(=O)[C@@H](Cc1c[nH]c2ccccc12)NS(=O)(=O)c1cccs1     100
3  CC(C)CC(C)(C=O)NC(=O)[C@@H](COCc1ccccc1)NS(C)(=O)=O (stereo partly shown) [Compound 110] (Ms-[dS](Bn)-[ξαMeL]-aldehyde)      12
4  O=C[C@H](Cc1ccccc1)NC(=O)[C@@H](COCc1ccccc1)NC(=O)c1ccccc1      62
5  O=C[C@H](Cc1ccccc1)NC(=O)[C@H]1C[C@@H](OS(=O)(=O)c2ccccc2)CN1S(=O)(=O)c1ccccc1      25
6  CS(=O)(=O)N[C@H](COCc1ccccc1)C(=O)N[C@H](C=NNC(N)=O)Cc1ccccc1      47
